Target: cyclo-oxygenase (CO) (Homo sapiens)
Construct: The leukocytes were homogenised and 5µM arachidonic acid added; from tissue; host or cells: homogenised leukocytes from blood of volunteers
Sequence (P23219 24-599): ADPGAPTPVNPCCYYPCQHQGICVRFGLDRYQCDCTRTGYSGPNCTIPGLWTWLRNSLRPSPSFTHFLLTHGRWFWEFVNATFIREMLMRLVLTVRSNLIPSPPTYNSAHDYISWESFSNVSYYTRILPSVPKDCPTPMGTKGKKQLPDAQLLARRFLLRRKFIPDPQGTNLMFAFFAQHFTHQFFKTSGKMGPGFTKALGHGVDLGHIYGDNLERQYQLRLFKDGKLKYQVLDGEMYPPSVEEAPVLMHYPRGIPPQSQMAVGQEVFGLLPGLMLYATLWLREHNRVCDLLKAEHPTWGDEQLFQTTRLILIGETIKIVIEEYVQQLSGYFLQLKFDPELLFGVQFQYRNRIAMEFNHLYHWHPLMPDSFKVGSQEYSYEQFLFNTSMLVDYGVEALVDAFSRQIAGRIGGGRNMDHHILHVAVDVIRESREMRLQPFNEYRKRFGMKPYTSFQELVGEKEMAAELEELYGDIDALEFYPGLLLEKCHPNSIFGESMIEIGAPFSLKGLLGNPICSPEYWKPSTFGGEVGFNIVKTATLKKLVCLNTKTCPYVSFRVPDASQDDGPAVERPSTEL
Assay: In vitro inhibition of cyclo-oxygenase (CO) in homogenised leukocytes, radioimmunoassay for thromboxane B2
Type: biochemical
Conditions: homogenised leukocytes from blood of normal aspirin-free volunteers; 5µM arachidonic acid, 37°C, 5 minutes; thromboxane B₂ by radioimmunoassay; read-out: IC₅₀(µM) activity CO
READOUT TYPE: IC50 (µM)

> print(dat)
                                   compound  readout.type  experimental.value
1  CC(=O)N(O)[C@@H](C)/C=C/c1cccc(Oc2ccc(F)cc2)c1 [Synthetic Example]          IC50                   3
